B1: glmS ribozyme (parent)
chain: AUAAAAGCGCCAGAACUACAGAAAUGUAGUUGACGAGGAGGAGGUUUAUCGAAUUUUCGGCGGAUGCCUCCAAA

# Variants of: B1
# ASSAY_PROCEDURE: self-cleavage kobs at 10000 uM GlcN6P; higher = faster cleavage; RNA array
# RECORDED_CONDITIONS: with glucosamine-6-phosphate
Variants at the floor of the assay were thinned out.
Please use Y whenever self-cleavage kobs at 10000 uM GlcN6P is not below 0.0001 s⁻¹, and N whenever it is.

C8A C11A: N

Request: Does U31G G38U A53U have a reported self-cleavage kobs at 10000 uM GlcN6P of at least 0.0001 s⁻¹?
Response: N

Request: Does U30C G51C have a reported self-cleavage kobs at 10000 uM GlcN6P of at least 0.0001 s⁻¹?
Response: N

Request: Does A6G A12U C61U have a reported self-cleavage kobs at 10000 uM GlcN6P of at least 0.0001 s⁻¹?
Response: N

Request: Does G9U G51A have a reported self-cleavage kobs at 10000 uM GlcN6P of at least 0.0001 s⁻¹?
Response: N

Request: Does C8A A14G C70G have a reported self-cleavage kobs at 10000 uM GlcN6P of at least 0.0001 s⁻¹?
Response: N

Request: Does C11G G38A A48C G60C G62C C68U have a reported self-cleavage kobs at 10000 uM GlcN6P of at least 0.0001 s⁻¹?
Response: N

Request: Does C11A A12C U31C U49A have a reported self-cleavage kobs at 10000 uM GlcN6P of at least 0.0001 s⁻¹?
Response: N

Request: Does G13C G44U have a reported self-cleavage kobs at 10000 uM GlcN6P of at least 0.0001 s⁻¹?
Response: N

Request: Does A42U G60C C67A have a reported self-cleavage kobs at 10000 uM GlcN6P of at least 0.0001 s⁻¹?
Response: N

Request: Does A6U G9C A33C C50G A52C U56C C68A C71U have a reported self-cleavage kobs at 10000 uM GlcN6P of at least 0.0001 s⁻¹?
Response: N

Request: Does A6U U49A have a reported self-cleavage kobs at 10000 uM GlcN6P of at least 0.0001 s⁻¹?
Response: N

Request: Does G7C G63C C68G U69A have a reported self-cleavage kobs at 10000 uM GlcN6P of at least 0.0001 s⁻¹?
Response: N

Request: Does G7U G32U U49A have a reported self-cleavage kobs at 10000 uM GlcN6P of at least 0.0001 s⁻¹?
Response: N

Request: Does A39G G60C C70U have a reported self-cleavage kobs at 10000 uM GlcN6P of at least 0.0001 s⁻¹?
Response: N

Request: Does C16G G51A have a reported self-cleavage kobs at 10000 uM GlcN6P of at least 0.0001 s⁻¹?
Response: N
